The reported numbers originate from patent US10259810B2.

- Measured on: ΔF508-CFTR (Homo sapiens, UniProt P13569, DEL508-508)
- Construct: host or cells: CFBE41o-, doxycycline-inducible
- Sequence (P13569 with tags, fused parts or gaps DEL508-508): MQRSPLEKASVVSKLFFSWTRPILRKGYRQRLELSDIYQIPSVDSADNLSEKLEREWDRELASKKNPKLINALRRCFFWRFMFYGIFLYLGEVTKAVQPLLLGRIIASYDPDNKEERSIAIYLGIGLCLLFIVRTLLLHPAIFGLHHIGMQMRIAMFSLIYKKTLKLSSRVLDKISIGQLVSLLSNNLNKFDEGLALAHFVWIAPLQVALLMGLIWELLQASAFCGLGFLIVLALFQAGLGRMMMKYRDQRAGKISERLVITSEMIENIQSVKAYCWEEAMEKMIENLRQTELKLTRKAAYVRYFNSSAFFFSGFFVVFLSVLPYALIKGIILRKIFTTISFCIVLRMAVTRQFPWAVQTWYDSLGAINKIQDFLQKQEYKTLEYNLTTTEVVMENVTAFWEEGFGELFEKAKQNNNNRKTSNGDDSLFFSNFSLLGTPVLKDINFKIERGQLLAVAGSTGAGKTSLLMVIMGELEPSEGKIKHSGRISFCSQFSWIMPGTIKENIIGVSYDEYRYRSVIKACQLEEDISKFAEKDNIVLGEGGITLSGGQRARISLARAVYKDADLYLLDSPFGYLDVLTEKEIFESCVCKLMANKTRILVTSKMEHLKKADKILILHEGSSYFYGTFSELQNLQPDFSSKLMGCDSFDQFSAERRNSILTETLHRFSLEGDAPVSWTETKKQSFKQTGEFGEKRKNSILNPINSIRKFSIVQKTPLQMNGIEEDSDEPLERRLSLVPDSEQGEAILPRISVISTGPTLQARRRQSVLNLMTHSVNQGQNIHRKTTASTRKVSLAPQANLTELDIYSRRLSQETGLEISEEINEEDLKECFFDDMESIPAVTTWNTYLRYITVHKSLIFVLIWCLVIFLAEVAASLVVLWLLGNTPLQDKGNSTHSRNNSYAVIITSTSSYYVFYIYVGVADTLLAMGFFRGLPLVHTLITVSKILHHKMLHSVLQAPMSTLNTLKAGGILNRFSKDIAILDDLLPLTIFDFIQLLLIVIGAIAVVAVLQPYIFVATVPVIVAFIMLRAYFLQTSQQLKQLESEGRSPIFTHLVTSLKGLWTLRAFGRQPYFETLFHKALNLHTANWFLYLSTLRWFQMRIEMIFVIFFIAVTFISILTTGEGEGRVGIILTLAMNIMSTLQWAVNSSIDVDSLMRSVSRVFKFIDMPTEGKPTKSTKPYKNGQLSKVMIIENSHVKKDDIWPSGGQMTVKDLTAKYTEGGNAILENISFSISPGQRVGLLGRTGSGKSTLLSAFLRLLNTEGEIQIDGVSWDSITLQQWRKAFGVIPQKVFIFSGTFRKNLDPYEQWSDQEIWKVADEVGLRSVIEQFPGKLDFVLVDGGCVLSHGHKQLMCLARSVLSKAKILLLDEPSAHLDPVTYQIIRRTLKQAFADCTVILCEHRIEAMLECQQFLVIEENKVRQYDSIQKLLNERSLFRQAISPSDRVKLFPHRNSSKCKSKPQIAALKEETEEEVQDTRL
- Experiment notes: CFTR cell surface levels using HRP-tagged ΔF508-CFTR expressing CFBE cells, intrinsic corrector capacity
- Type: cell-based
- Set-up: concentration or dose not given beside the values
- Recorded conditions: HRP-tagged ΔF508-CFTR expressing CFBE41o- cells; compound alone (intrinsic corrector capacity); 20 hours at 33° C.
Lab note: cut-off is 200%. Strictly less in % Activation is yes (1). Exactly 200% or more is no (0).

{"columns": ["Compound", "Cat"],
 "data": [
  ["CC(C)c1nn(C2CCCCC2)c2nc(C(=O)NS(C)(=O)=O)cc(-c3cnc(N4CCC(C#N)CC4)nc3)c12 [Compound 119]", "yes (1)"],
  ["CN1CCCN(C(=O)c2cc(N3CCC(CN4CCCC4)CC3)c3c(C4CCC4)nn(-c4ccccc4)c3n2)S1(=O)=O [Compound 660]", "yes (1)"],
  ["Cc1nn(-c2ccccc2)c2nc(C(=O)NS(C)(=O)=O)cc(-c3ccc(N4CCOCC4)nc3)c12 [Compound 37]", "no (0)"],
  ["COCC1CCN(c2cc(C(=O)NS(C)(=O)=O)nc3c2c(C(C)C)nn3-c2ccc(=O)n(C)n2)CC1 [Compound 268]", "yes (1)"],
  ["COC1CCCN(C2CCN(c3cc(C(=O)NS(=O)(=O)N(C)C)nc4c3c(C3CCC3)nn4-c3ccc(F)cc3)CC2)C1 (centres unmarked) [Compound 572]", "no (0)"],
  ["CC(C)N1CCN(c2ccc(-c3cc(C(=O)NS(=O)(=O)N(C)C)nc4c3c(C3CCC3)nn4C3CCCCC3)cn2)CC1 [Compound 542]", "yes (1)"],
  ["CC(C)c1nn(-c2ccc(F)cc2)c2nc(C(=O)NS(C)(=O)=O)cc(N3CCNC(C(F)(F)F)C3)c12 (centres unmarked) [Compound 339]", "yes (1)"],
  ["Cc1nn(-c2cc(F)cc(F)c2)c2nc(C(=O)NS(C)(=O)=O)cc(-c3ccc(N4CCOCC4)cc3)c12 [Compound 23]", "no (0)"],
  ["CN(C)S(=O)(=O)NC(=O)c1cc(N2CCC(CN3CCOCC3)CC2)c2c(C3CCC3)nn(-c3ccc(F)cc3)c2n1 [Compound 409]", "no (0)"],
  ["CN1CCCCC1CCOc1cc(C(=O)NS(C)(=O)=O)nc2c1c(C1CCC1)nn2-c1ccccc1 (centres unmarked) [Compound 323]", "yes (1)"],
  ["O=C(NS(=O)(=O)N1CCC(F)CC1)c1cc(N2CCC(N3CCOCC3)CC2)c2c(C3CCC3)nn(-c3ccccc3)c2n1 [Compound 434]", "no (0)"],
  ["CN(C)S(=O)(=O)NC(=O)c1cc(N2CCC(N3CCOCC3)CC2)c2c(C3CCC3)nn(-c3ccc4c(c3)OC(F)(F)O4)c2n1 [Compound 623]", "no (0)"],
  ["CC(C)Oc1nccc(-n2nc(C3CCC3)c3c(N4CCC(N5CCOCC5)CC4)cc(C(=O)NS(=O)(=O)N(C)C)nc32)n1 [Compound 621]", "yes (1)"]
]}
